B1: TPR t1 (parent)
chain: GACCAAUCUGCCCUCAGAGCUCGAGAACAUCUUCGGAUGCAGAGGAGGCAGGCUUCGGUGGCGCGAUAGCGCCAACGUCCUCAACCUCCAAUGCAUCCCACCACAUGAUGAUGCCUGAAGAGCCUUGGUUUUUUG

# Variants of: B1
# ASSAY INFO: polymerase ribozyme fitness, log enrichment relative to wild type (log ratio); higher = more active; in vitro selection for triplet polymerase activity
REPORTED PROPERTY: polymerase ribozyme fitness (log ratio)

mutation="A6U C40G G51U" reported_property="polymerase ribozyme fitness (log ratio)" observed_value=-4.16
mutation="C101U C124A" reported_property="polymerase ribozyme fitness (log ratio)" observed_value=1.17
mutation="G63A A66C" reported_property="polymerase ribozyme fitness (log ratio)" observed_value=-2.96
mutation="C56U A111G" reported_property="polymerase ribozyme fitness (log ratio)" observed_value=0.705
mutation="U9G A74U" reported_property="polymerase ribozyme fitness (log ratio)" observed_value=0.26
mutation="G60U C114A" reported_property="polymerase ribozyme fitness (log ratio)" observed_value=-1.45
mutation="G10U A103G" reported_property="polymerase ribozyme fitness (log ratio)" observed_value=-6.29
mutation="C85G U133G" reported_property="polymerase ribozyme fitness (log ratio)" observed_value=-2.39
mutation="A90G U92G G107U C114U G127U" reported_property="polymerase ribozyme fitness (log ratio)" observed_value=-5.63
mutation="G10A G52U C72G C99U" reported_property="polymerase ribozyme fitness (log ratio)" observed_value=-4.47
mutation="G44U C49A A50C C72A" reported_property="polymerase ribozyme fitness (log ratio)" observed_value=-1.95
mutation="A46G C56A U133G" reported_property="polymerase ribozyme fitness (log ratio)" observed_value=-0.786
mutation="C15U A37G C64U" reported_property="polymerase ribozyme fitness (log ratio)" observed_value=-1.81
mutation="U78G C86U U133A" reported_property="polymerase ribozyme fitness (log ratio)" observed_value=-0.63
mutation="A16U C22U C62U U78C U92G G120A C123A" reported_property="polymerase ribozyme fitness (log ratio)" observed_value=-6.53
mutation="C70A U87C C102A" reported_property="polymerase ribozyme fitness (log ratio)" observed_value=-3.97
mutation="U9G C56A C79G" reported_property="polymerase ribozyme fitness (log ratio)" observed_value=-1.55
mutation="C13U C82G C99U" reported_property="polymerase ribozyme fitness (log ratio)" observed_value=-3.96
mutation="C40A G45U G71C U92A" reported_property="polymerase ribozyme fitness (log ratio)" observed_value=-6.28
mutation="A46G C85G" reported_property="polymerase ribozyme fitness (log ratio)" observed_value=-2.68
mutation="G36C A37C A41G G61U" reported_property="polymerase ribozyme fitness (log ratio)" observed_value=-4.4
mutation="A18C G71U" reported_property="polymerase ribozyme fitness (log ratio)" observed_value=-3.18
